Test: Navoximod plasma pharmacokinetics
Assay type: in vivo, human
Details: human, plasma, po, Tmax range, 50–1000 mg BID
result-type: Tmax

## Task What value of Tmax has been recorded for this entry: O[C@H](C[C@H]1c2c(F)cccc2-c2cncn21)[C@H]1CC[C@H](O)CC1 [Navoximod]
## Result 0.25 to 4 h
